Origin of values: the RepoRT retention time repository (doi:10.1021/es4044374)

We begin with a simple list: items and their reported LC retention time.
# Test Method Notes: RP, Waters XBridge C18, 50 × 2.1 mm, 3.5 µm, 30 °C, 0.2 mL/min, estimated dead time 0.55 min; A: water + 0.1% formic acid, pH 3; B: methanol + 0.1% formic acid, pH 3; gradient (min/%B) 0/10 4/50 17/95 25/95 25.1/10 30/10
# Test Conditions: stereoisomer not certain

{"Molecule": "C=C1C(=O)NC(C)C(=O)NC(CC(C)C)C(=O)NC(C(=O)O)C(C)C(=O)NC(CCCN=C(N)N)C(=O)NC(C=CC(C)=CC(C)C(Cc2ccccc2)OC)C(C)C(=O)NC(C(=O)O)CCC(=O)N1C (centres undefined)", "LC retention time (min)": 10.2}
{"Molecule": "CCC(C)c1cc([N+](=O)[O-])cc([N+](=O)[O-])c1O (centres undefined)", "LC retention time (min)": 13}
{"Molecule": "CNC(=C[N+](=O)[O-])NCCSCc1ccc(C[N+](C)(C)[O-])o1 [Ranitidine N-oxide]", "LC retention time (min)": 2.4}
{"Molecule": "CCOP(=O)(OCC)Oc1cc(C)nc(C(C)C)n1", "LC retention time (min)": 9.5}
{"Molecule": "Cc1cc(C)nc(Nc2ccccc2)n1", "LC retention time (min)": 7.6}
{"Molecule": "O=C(O)c1cc(Br)c(O)c(Br)c1 [3,5-Dibromo-4-hydroxybenzoic acid]", "LC retention time (min)": 7.3}
{"Molecule": "CCNc1nc(NCC)[nH]c(=O)n1 [Simazine-2-hydroxy]", "LC retention time (min)": 3.5}
{"Molecule": "CNC(=O)Oc1cc(C)c(S(C)=O)c(C)c1 (centres undefined) [Methiocarb-sulfoxide]", "LC retention time (min)": 4.9}
{"Molecule": "CCc1ccc(C(=O)NN(C(=O)c2cc(C)cc(C)c2)C(C)(C)C)cc1 [Tebufenozide]", "LC retention time (min)": 12.4}
{"Molecule": "CCn1cc(C(=O)O)c(=O)c2cc(F)c(N3CCNCC3)cc21", "LC retention time (min)": 4.4}
{"Molecule": "CC(C)(C)C(O)(CCc1ccc(Cl)cc1)Cn1cncn1 (centres undefined)", "LC retention time (min)": 12.8}
{"Molecule": "COc1cc(OC)nc(NC(=O)NS(=O)(=O)c2ncccc2C(=O)N(C)C)n1", "LC retention time (min)": 7.1}
{"Molecule": "COC(=O)NS(=O)(=O)c1ccc(N)cc1", "LC retention time (min)": 2.4}
{"Molecule": "O=[N+]([O-])/N=C1\\NCCN1Cc1ccc(Cl)nc1", "LC retention time (min)": 4.8}
{"Molecule": "O=C(O)CNS(=O)(=O)C(F)(F)C(F)(F)C(F)(F)C(F)(F)C(F)(F)C(F)(F)C(F)(F)C(F)(F)F", "LC retention time (min)": 15.9}
{"Molecule": "CC(=O)Nc1c(C)n(C)n(-c2ccccc2)c1=O [4-Acetamidoantipyrine]", "LC retention time (min)": 3.7}
{"Molecule": "Cc1c(N(C)C)c(=O)n(-c2ccccc2)n1C", "LC retention time (min)": 2.6}
{"Molecule": "CC1COC(=O)c2cc3c(cc21)C(C)(C)C(C)C3(C)C (centres undefined)", "LC retention time (min)": 14.7}
{"Molecule": "O=C(O)COCCN1CCN(C(c2ccccc2)c2ccc(Cl)cc2)CC1 (centres undefined)", "LC retention time (min)": 9.3}
{"Molecule": "CCc1cccc(C)c1N1C(=O)COCC1C (centres undefined)", "LC retention time (min)": 8.2}
{"Molecule": "CCC(C(N)=O)N1CCCC1=O (centres undefined)", "LC retention time (min)": 3}
{"Molecule": "NS(=O)(=O)c1cc2c(cc1Cl)NCNS2(=O)=O [Hydrochlorothiazide]", "LC retention time (min)": 2.2}
{"Molecule": "CC=C1N(C)C(C)CC1(c1ccccc1)c1ccccc1 (centres undefined)", "LC retention time (min)": 6.5}
{"Molecule": "CN(C)S(=O)(=O)Nc1ccccc1 [N,N-Dimethyl-N'-phenylsulfamide]", "LC retention time (min)": 6.3}
{"Molecule": "CN1C2CCC1C(C(=O)O)C(OC(=O)c1ccccc1)C2 (centres undefined)", "LC retention time (min)": 4.6}
{"Molecule": "COc1ccc2c(c1)C13CCCCC1C(C2)N(C)CC3 (centres undefined)", "LC retention time (min)": 6.6}
{"Molecule": "CCC1OC(=O)C(C)C(OC2CC(C)(OC)C(O)C(C)O2)C(C)C(OC2OC(C)CC(N(C)C)C2O)C(C)(OC)CC(C)C(=O)C(C)C(O)C1(C)O (centres undefined)", "LC retention time (min)": 9.7}
{"Molecule": "CCCN(CCC)C(=O)SCc1ccccc1", "LC retention time (min)": 14.4}
{"Molecule": "CC(Cc1ccc(C(C)(C)C)cc1)CN1CCCCC1 (centres undefined)", "LC retention time (min)": 9.5}
{"Molecule": "CCC1OC(=O)C(C)C(OC2CC(C)(OC)C(O)C(C)O2)C(C)C(OC2OC(C)CC(N(C)C)C2O)C(C)(O)CC(C)CN(C)C(C)C(O)C1(C)O (centres undefined)", "LC retention time (min)": 5.9}
{"Molecule": "COc1c(C)c2c(c(O)c1CC=C(C)CCC(=O)O)C(=O)OC2", "LC retention time (min)": 9.9}
{"Molecule": "Fc1ccc(C2(Cn3cncn3)OC2c2ccccc2Cl)cc1 (centres undefined)", "LC retention time (min)": 11.7}
{"Molecule": "COCCN(C(=O)CS(=O)(=O)O)c1c(C)cccc1C", "LC retention time (min)": 5.9}
{"Molecule": "CC(=O)Nc1ccc(S(=O)(=O)Nc2nc(C)cc(C)n2)cc1", "LC retention time (min)": 4.5}
